Cited source: patent US20250320312A1

# system_tested: PC-BSA
# Sequence (P02769 25-607 limits assumed, form in doubt): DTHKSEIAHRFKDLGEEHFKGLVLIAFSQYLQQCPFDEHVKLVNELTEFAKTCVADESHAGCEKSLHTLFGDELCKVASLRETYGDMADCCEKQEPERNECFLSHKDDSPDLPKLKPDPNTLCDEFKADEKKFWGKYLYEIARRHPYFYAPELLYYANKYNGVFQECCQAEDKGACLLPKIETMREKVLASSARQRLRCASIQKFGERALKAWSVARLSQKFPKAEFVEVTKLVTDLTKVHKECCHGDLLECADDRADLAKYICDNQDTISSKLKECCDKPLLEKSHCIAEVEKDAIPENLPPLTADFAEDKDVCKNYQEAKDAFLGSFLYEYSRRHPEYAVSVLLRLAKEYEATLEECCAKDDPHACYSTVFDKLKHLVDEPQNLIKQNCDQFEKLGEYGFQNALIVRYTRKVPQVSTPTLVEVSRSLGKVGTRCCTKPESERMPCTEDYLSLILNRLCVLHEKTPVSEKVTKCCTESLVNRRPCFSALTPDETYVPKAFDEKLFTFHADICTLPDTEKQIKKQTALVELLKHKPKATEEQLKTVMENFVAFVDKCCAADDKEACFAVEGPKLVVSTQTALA
# measurement_protocol: ELISA (DELFIA TRF), PC-BSA coated, titrated IgG1
pEC50: −log10 of the molar value.

binder	pEC50
PcOxP_DB01_B09 (human IgG1) (antibody, V domains shown) VH: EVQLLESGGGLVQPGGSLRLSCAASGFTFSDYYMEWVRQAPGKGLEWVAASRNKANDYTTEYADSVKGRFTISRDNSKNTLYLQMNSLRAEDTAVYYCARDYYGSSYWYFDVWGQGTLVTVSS VL: DIQMTQSPSSLSASVGDRVTITCTASESLYSSKHKVHYLAWYQQKPGKAPKLLIYGASNRYTGVPSRFSGSGSGTDFTLTISSLQPEDFATYYCAQFYHYPLTFGGGTKVEIK	9.50
PcOxP_DB03_H03 (human IgG1) (antibody, V domains shown) VH: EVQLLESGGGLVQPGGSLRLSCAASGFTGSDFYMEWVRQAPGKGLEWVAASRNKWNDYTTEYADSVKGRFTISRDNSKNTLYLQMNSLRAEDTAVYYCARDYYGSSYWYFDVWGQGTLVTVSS VL: DIQMTQSPSSLSASVGDRVTITCTASESLSSSKHKHYLAWYQQKPGKAPKLLIYGASSRYSGVPSRFSGSGSGTDFTLTISSLQPEDFATYYCAQFYSYPLTFGGGTKVEIK	9.64
PcOxP_DB02_A05 (human IgG1) (antibody, V domains shown) VH: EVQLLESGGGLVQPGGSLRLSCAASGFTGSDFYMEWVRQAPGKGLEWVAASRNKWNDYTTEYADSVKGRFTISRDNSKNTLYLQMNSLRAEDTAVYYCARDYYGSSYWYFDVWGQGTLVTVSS VL: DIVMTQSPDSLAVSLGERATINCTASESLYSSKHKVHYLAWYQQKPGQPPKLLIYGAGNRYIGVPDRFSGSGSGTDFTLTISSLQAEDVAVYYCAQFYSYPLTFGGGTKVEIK	9.58
PcOxP_DB04_A04 (human IgG1) (antibody, V domains shown) VH: EVQLLESGGGLVQPGGSLRLSCAASGFTFSDFYMEWVRQAPGKGLEWVAASRNKWNDYTTEYADSVKGRFTISRDNSKNTLYLQMNSLRAEDTAVYYCARDYYGSSYWYFDVWGQGTLVTVSS VL: DIVMTQSPDSLAVSLGERATINCTASQSVYSSKNKKHYLAWYQQKPGQPPKLLIYGASNRYIGVPDRFSGSGSGTDFTLTISSLQAEDVAVYYCAQFYRYPLTFGGGTKVEIK	9.53
PcOxP_DB04_A11 (human IgG1) (antibody, V domains shown) VH: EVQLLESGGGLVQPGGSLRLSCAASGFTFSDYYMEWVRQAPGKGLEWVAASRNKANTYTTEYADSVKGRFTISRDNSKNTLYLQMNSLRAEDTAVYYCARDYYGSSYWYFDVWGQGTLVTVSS VL: DIVMTQSPDSLAVSLGERATINCTASESVLSSKHKKNYLAWYQQKPGQPPKLLIYGASTRYIGVPDRFSGSGSGTDFTLTISSLQAEDVAVYYCAQFYSYPLTFGGGTKVEIK	9.38
PcOxP_DB02_B04 (human IgG1) (antibody, V domains shown) VH: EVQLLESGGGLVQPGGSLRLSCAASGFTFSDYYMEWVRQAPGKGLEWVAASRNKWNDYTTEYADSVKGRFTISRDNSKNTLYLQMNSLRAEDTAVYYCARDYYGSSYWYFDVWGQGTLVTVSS VL: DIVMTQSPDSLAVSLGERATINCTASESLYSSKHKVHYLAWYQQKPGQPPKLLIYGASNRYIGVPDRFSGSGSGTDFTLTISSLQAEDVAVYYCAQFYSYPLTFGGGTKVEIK	9.56
PcOxP_DB02_A06 (human IgG1) (antibody, V domains shown) VH: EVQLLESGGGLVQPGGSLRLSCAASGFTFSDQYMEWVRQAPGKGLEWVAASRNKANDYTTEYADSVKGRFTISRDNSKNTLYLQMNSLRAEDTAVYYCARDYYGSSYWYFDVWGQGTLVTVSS VL: DIQMTQSPSSLSASVGDRVTITCTASESLYSSKHKVHYLAWYQQKPGKAPKLLIYGLSNRYIGVPSRFSGSGSGTDFTLTISSLQPEDFATYYCAQFYSYPLTFGGGTKVEIK	9.19
PcOxP_DB03_D08 (human IgG1) (antibody, V domains shown) VH: EVQLLESGGGLVQPGGSLRLSCAASGFWFSDFYMEWVRQAPGKGLEWVAASRNKANDYTTEYADSVKGRFTISRDNSKNTLYLQMNSLRAEDTAVYYCARDYYGSAYWYFDVWGQGTLVTVSS VL: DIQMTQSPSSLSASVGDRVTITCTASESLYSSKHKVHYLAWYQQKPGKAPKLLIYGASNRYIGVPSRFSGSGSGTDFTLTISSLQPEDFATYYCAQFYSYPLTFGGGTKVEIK	9.40
PcOxP_DB01_D01 (human IgG1) (antibody, V domains shown) VH: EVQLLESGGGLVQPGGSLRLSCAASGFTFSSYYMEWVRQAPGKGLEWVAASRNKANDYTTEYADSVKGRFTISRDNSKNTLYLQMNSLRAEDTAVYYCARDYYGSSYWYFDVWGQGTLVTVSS VL: DIVMTQSPDSLAVSLGERATINCTASESLYSPKHKVHYLAWYQQKPGQPPKLLIYGASNRYIGVPDRFSGSGSGTDFTLTISSLQAEDVAVYYCAQFYIYPLTFGGGTKVEIK	9.56
PcOxP_DB03_B09 (human IgG1) (antibody, V domains shown) VH: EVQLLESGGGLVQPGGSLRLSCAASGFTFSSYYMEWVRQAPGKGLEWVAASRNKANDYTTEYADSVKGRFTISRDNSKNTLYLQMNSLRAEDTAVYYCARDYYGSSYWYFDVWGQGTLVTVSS VL: DIVMTQSPDSLAVSLGERATINCTASESLYSSKHKVHYLAWYQQKPGQPPKLLIYGAANRYIGVPDRFSGSGSGTDFTLTISSLQAEDVAVYYCAQFYSYPLTFGGGTKVEIK	9.37
